Parameter IC50: see the listing below.
# experimental_system: Large T antigen (Simian virus 40);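 further: Confirmatory-stage PubChem screen for compounds that inhibit SV40 T antigen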
# Sequence (P03070 whole entry): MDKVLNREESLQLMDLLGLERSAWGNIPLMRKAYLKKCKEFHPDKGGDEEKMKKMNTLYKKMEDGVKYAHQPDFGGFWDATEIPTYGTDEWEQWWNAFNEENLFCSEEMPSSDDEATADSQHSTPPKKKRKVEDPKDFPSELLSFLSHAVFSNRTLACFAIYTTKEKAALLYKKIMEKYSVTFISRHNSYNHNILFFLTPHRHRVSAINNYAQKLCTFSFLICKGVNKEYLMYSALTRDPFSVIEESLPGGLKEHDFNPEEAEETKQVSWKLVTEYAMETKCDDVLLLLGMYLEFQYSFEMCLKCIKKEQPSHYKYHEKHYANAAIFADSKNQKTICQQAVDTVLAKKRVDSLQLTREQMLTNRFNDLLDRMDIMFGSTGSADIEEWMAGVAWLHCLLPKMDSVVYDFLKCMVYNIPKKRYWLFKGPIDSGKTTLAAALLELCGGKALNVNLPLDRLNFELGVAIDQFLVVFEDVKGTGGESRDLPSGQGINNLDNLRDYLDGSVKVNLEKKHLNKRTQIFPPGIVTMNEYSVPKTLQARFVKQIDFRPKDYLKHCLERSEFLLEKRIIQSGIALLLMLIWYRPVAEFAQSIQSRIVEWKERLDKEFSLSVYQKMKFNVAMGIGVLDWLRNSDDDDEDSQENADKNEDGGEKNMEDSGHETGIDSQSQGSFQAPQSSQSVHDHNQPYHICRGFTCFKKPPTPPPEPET
# Type: functional, Betapolyomavirus macacae
Activity calls are given as the source filed them.
result_type: IC50

INSERT INTO measurements (compound, observed_measurement) VALUES
  ('N#CC1=C2SCN(c3ccccc3)CN2C(=O)CC1c1ccccc1Cl (stereo not given)', '36.3 µM (active)'),
  ('COc1cc(/C=N\NC(=O)C2CC3C=CC2C3)ccc1O (stereo not given)', '13.3 µM (active)'),
  ('O=C1NC(=S)S/C1=C\c1ccc(SCc2ccccc2)o1', '> 100 µM (active)'),
  ('N=C(N)N/N=C1C=C/C(=N\NC(N)=S)C=C\1', '13.7 µM (active)'),
  ('COc1ccccc1N1CCN(/N=C/c2ccc(O)c(O)c2)CC1', '15 µM (active)');
